Reported TGI values for a set of compounds
test system: SF-268 CNS; assay: NCI tumour cell line growth inhibition, 48 h

// solved cases for TGI follow
• COc1cc(-c2cc(-c3cc(OC)c(OC)c(OC)c3)nc3nc(N)[nH]c(=O)c23)ccc1Oc1ccnc2cc(Cl)ccc12 = > 100 µM
• COC(=O)C(Cc1nc2ccccc2nc1C)/C(=N\NC(N)=O)C(=O)Nc1cccc([N+](=O)[O-])c1 (stereo unspecified) = > 100 µM
• Cn1c(=O)sc2cc(C(=S)N3CCC(Cc4ccccc4)CC3)ccc21 = > 100 µM
• COc1ccc(Nc2cc(C)nc(NCCCNc3ccnc4cc(Cl)ccc34)n2)cc1 = 3.61 µM
• COc1ccccc1/C=C1\NC(=S)N(/C=C2\C(=O)Oc3ccccc3C2=O)C1=O = > 100 µM
• COC(=O)C1=C(C(=O)OC)C2(C)Nc3ccccc3C2=C(c2ccccc2)C1 (stereo unspecified) = 66.5 µM
• CC1(C)[C@@H](OC(=O)CCC(=O)O)CC[C@]2(C)[C@H]3C(=O)C=C4[C@@H]5C[C@@](C)(C(=O)O)CC[C@]5(C)CC[C@@]4(C)[C@]3(C)CC[C@@H]12 = 143 µM
• Cc1cc(C)nc(NS(=O)(=O)c2ccc(Nc3c4ccc(Cl)cc4nc4c(C(=O)NCCN(C)C)cccc34)cc2)n1 = > 100 µM
• COc1ccc2nc3ccc(OC)cc3c(SCc3ccccc3)c2c1 = > 100 µM
• O=C1c2cccc(NCCN=Cc3ccccc3O)c2C(=O)c2c(NCCN=Cc3ccccc3O)cccc21 = 1.46 µM

Complete the entry with TGI for OCc1ccc(N2CCc3ccccc3C2)cc1Cl
> 100 µM

Complete the entry with TGI for C[N+](C)(C)CC(=O)N/N=C/c1ccncc1
> 100 µM

Entry source: PubChem BioAssay (NCI)
